molecular target: human GM-CSF I117 (human, UniProt P04141 18-144); assay: cell-based or functional assay
Sequence (P04141 18-144 limits assumed): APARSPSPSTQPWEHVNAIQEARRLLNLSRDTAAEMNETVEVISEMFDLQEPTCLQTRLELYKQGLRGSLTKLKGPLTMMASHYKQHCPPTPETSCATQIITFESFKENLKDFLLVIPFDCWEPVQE
experimental-readout: IC50, inhibition of GM-CSF induced TF-1 proliferation (32 pM GM-CSF) (pM)
Kindly answer with a numeric value in pM, unit omitted.

Q: What does the record list as IC50, inhibition of GM-CSF induced TF-1 proliferation (32 pM GM-CSF) for MSB0010603 4K21 (4K21 hVH S56V-T62S hVL N28I-H34S-N53R-H93Y) (antibody, V domains shown, IgG) VH: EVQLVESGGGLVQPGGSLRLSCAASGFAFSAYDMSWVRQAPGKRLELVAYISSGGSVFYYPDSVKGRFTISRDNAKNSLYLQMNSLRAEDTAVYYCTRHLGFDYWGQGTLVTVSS VL: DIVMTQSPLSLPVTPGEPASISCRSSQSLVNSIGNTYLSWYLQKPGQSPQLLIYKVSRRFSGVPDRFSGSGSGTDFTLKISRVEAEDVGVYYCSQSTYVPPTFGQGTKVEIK ?
A: 39

Q: What does the record list as IC50, inhibition of GM-CSF induced TF-1 proliferation (32 pM GM-CSF) for MSB0010600 4K21 (4K21 hVH S55R-T62S hVL S27eY-N28I-H34S-N53R-H93Y) (antibody, V domains shown) VH: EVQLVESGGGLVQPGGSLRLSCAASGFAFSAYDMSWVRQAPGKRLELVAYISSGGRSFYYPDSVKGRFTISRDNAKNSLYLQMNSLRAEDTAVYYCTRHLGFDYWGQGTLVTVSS VL: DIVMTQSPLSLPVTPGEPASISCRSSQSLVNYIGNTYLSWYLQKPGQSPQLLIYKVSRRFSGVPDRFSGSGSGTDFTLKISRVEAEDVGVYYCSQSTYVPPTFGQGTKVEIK ?
A: 33

Q: What does the record list as IC50, inhibition of GM-CSF induced TF-1 proliferation (32 pM GM-CSF) for humanized parental 4K21 hVH hVL + H93Y (MS100305-A) (antibody, V domains shown) VH: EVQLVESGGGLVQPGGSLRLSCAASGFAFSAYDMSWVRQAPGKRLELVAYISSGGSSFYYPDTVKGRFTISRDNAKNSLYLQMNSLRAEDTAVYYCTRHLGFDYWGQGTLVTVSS VL: DIVMTQSPLSLPVTPGEPASISCRSSQSLVNSNGNTYLHWYLQKPGQSPQLLIYKVSNRFSGVPDRFSGSGSGTDFTLKISRVEAEDVGVYYCSQSTYVPPTFGQGTKVEIK ?
A: 30
